This collection of values is drawn from patent US20260028326A1.

- Tested on: Daudi cells
- Assay Info: Tumor cell proliferation IC50 (CCK-8), Daudi;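 note: cell viability read with CCK-8 reagent after compound exposure of Daudi cells, IC50 derived from plotted growth inhibition curves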
- Setup Conditions: Homo sapiens, read-out: IC50 for inhibiting the proliferation of tumor cells, Daudi
pIC50: −log10 of the molar value.
Measured pIC50, listed per entry.

[
  {
    "Molecule": "Cc1ccc(C2=C(CN3CCN(Cc4ccc5c(c4)CN(C4CCC(=O)NC4=O)C5=O)CC3)CCC(C)(C)C2)cc1 (stereo not shown)",
    "pIC50": "7.00 to 7.30"
  },
  {
    "Molecule": "O=C1CCC(N2C(=O)c3ccc(CN4CCN(Cc5ccccc5-c5ccc(Cl)cc5)CC4)cc3C2=O)C(=O)N1 (stereo not shown)",
    "pIC50": "6.00 to 6.30"
  },
  {
    "Molecule": "O=C1CCC(N2C(=O)c3ccc(CN4CCN(Cc5ccc(-c6ccc(Cl)cc6)s5)CC4)cc3C2=O)C(=O)N1 (stereo not shown)",
    "pIC50": "6.00 to 6.30"
  },
  {
    "Molecule": "O=C1CCC(N2Cc3cc(CN4CCN(Cc5ccccc5-c5ccc(Cl)cn5)CC4)ccc3C2=O)C(=O)N1 (stereo not shown)",
    "pIC50": "7.30 to 8.00"
  },
  {
    "Molecule": "CC1(C)CCC(C(=O)N2CC3(CN(Cc4ccc5c(c4)CN(C4CCC(=O)NC4=O)C5=O)C3)C2)=C(c2ccc(F)cc2)C1 (stereo not shown)",
    "pIC50": "6.30 to 7.00"
  },
  {
    "Molecule": "O=C1CCC(N2Cc3cc(CN4CCN(Cc5ccc(-c6ccc(Cl)cc6)s5)CC4)ccc3C2=O)C(=O)N1 (stereo not shown)",
    "pIC50": "6.30 to 7.00"
  },
  {
    "Molecule": "Nc1cccc2c1C(=O)N(C1CCC(=O)NC1=O)C2=O (stereo not shown) [pomalidomide, reference compound]",
    "pIC50": "5.00 to 5.30"
  },
  {
    "Molecule": "O=C1CCC(N2Cc3cc(NC4CCN(C(=O)c5ccccc5-c5ccc(Cl)cc5)CC4)ccc3C2=O)C(=O)N1 (stereo not shown)",
    "pIC50": "7.30 to 8.00"
  },
  {
    "Molecule": "O=C1CCC(N2Cc3cc(CN4CCN(Cc5ccccc5-c5ccc(F)cc5)CC4)c(F)cc3C2=O)C(=O)N1 (stereo not shown)",
    "pIC50": "8.00 to 8.30"
  },
  {
    "Molecule": "O=C1CCC(N2Cc3cc(CN4CCN(Cc5ccccc5-c5cccs5)CC4)ccc3C2=O)C(=O)N1 (stereo not shown)",
    "pIC50": "8.00 to 8.30"
  },
  {
    "Molecule": "O=C1CCC(N2Cc3cc(CN4CCN(Cc5ccc(-c6ccc(Cl)cc6)cc5)CC4)ccc3C2=O)C(=O)N1 (stereo not shown)",
    "pIC50": "6.00 to 6.30"
  },
  {
    "Molecule": "O=C1CCC(N2Cc3cc(CN4CCN(Cc5ccc(-c6ccco6)s5)CC4)ccc3C2=O)C(=O)N1 (stereo not shown)",
    "pIC50": "6.30 to 7.00"
  },
  {
    "Molecule": "O=C1CCC(N2Cc3cc(CC4CCN(C(=O)c5ccccc5-c5ccc(Cl)cc5)CC4)ccc3C2=O)C(=O)N1 (stereo not shown)",
    "pIC50": "6.30 to 7.00"
  },
  {
    "Molecule": "O=C1CCC(N2Cc3cc(CN4CCN(C(=O)c5ccccc5-c5ccc(Cl)cc5)CC4C(F)(F)F)ccc3C2=O)C(=O)N1 (stereo not shown)",
    "pIC50": "6.30 to 7.00"
  },
  {
    "Molecule": "CC1(C)CCC(CN2CCN(Cc3ccc4c(c3)CN(C3CCC(=O)NC3=O)C4=O)CC2)=C(c2cccs2)C1 (stereo not shown)",
    "pIC50": "7.30 to 8.00"
  },
  {
    "Molecule": "O=C1CCC(N2Cc3cc(NC4CN(Cc5ccccc5-c5ccc(Cl)cc5)C4)ccc3C2=O)C(=O)N1 (stereo not shown)",
    "pIC50": "6.30 to 7.00"
  },
  {
    "Molecule": "O=C1CCC(N2Cc3cc(CN4CCN(Cc5ccc(-c6cccs6)s5)CC4)ccc3C2=O)C(=O)N1 (stereo not shown)",
    "pIC50": "6.00 to 6.30"
  },
  {
    "Molecule": "O=C1CCC(N2Cc3cc(CN4CCN(Cc5ncccc5-c5ccc(Cl)cc5)CC4)ccc3C2=O)C(=O)N1 (stereo not shown)",
    "pIC50": "8.00 to 8.30"
  },
  {
    "Molecule": "CC1(C)CC(c2ccc(Cl)cc2)=C(CN2CCN(Cc3ccc4c(c3)CN(C3CCC(=O)NC3=O)C4=O)CC2)CO1 (stereo not shown)",
    "pIC50": "6.00 to 6.30"
  },
  {
    "Molecule": "CC1(C)CCC(CN2CCN(Cc3cc4c(cc3F)C(=O)N(C3CCC(=O)NC3=O)C4)CC2)=C(c2ccc(F)cc2)C1 (stereo not shown)",
    "pIC50": "7.30 to 8.00"
  },
  {
    "Molecule": "O=C1CCC(N2Cc3c(ccc(CN4CCN(Cc5ccccc5-c5ccc(F)cc5)CC4)c3F)C2=O)C(=O)N1 (stereo not shown)",
    "pIC50": "8.00 to 8.30"
  },
  {
    "Molecule": "O=C1CCC(N2Cc3cc(CN4CCN(Cc5cnccc5-c5ccc(Cl)cc5)CC4)ccc3C2=O)C(=O)N1 (stereo not shown)",
    "pIC50": "6.30 to 7.00"
  }
]
